EC50 values, listed per item
# subject-of-test: T1, human activated Protein C (human, UniProt P04070 43-461)
# T1 construct: also called human aPC; hAPC
# experimental-details: direct ELISA, antigen coated, Fab
Please don't drop the unit; write it after the number.

Study these solved cases before continuing.
>  <binder>
R41C17 Fab (Fab, V domains shown, Human Fab (lambda), expressed in E. coli; also called R4117) VH: EVQLLESGGGLVQPGGSLRLSCAASGFTFSNYAMSWVRQSPGKGLEWVAVISYDGREKYYSDSVKGRFTISRDNSKNTLYLQMNSLRAEDTAVYYCARDRGRTFDYWGQGTLVTVTS VL: LTQPPSASGTPGQRVTISCTGSSSNIGAGYVVHWYQQLPGTAPKLLIYRNNHRPSGVPDRFSGSKSGTSASLAISGLRSEDEADYYCAAWDDSLNGRVFGGGTKLTVLG

>  <EC50>
0.0086 µM

$$$$
>  <binder>
T46P19 Fab (Fab, V domains shown, Human Fab (lambda), expressed in E. coli) VH: EVQLLESGGGLVQPGGSLRLSCAASGFTFSGYGMHWVRQAPGKGLEWVSGINWNGGSTGYADSVKGRFTISRDNSKNTLYLQMNSLRAEDTAVYYCARNRATRSGYYYFDSWGQGTLVTVTS VL: LTQPPSASGTPGQRVTISCTGSSSNIGAGYDVHWYQQLPGTAPKLLIYGNINRPSGVPDRFSGSKSGTSASLAISGLRSEDEADYYCSSYTRSATLVFGGGTKLTVLG

>  <EC50>
0.0103 µM

$$$$
>  <binder>
R41E3 Fab (Fab, V domains shown, Human Fab (lambda), expressed in E. coli) VH: EVQLLESGGGLVQPGGSLRLSCAASGFTFNNYAMTWVRQAPGKGLEWVSGVSWNGSRTHYADSVKGRFTISRDNSKNTLYLQMNSLRAEDTAVYYCARADSSSAGRWAGSLDYWGQGTLVTVTS VL: LTQPPSASGTPGQRVTISCSGSSSNIGNNAVNWYQQLPGTAPKLLIYSNNQRPSGVPDRFSGSKSGTSASLAISGLRSEDEADYYCSSYTSSSTHVVFGGGTKLTVLG

>  <EC50>
0.0104 µM

$$$$
>  <binder>
C22J13 Fab (Fab, V domains shown, Human Fab (lambda) from a phage library, expressed in E. coli) VH: EVQLLESGGGLVQPGGSLRLSCAASGFTFSSNYMSWVRQAPGKGLEWVAVISYDGSNKYYADSVKGRFTISRDNSKNTLYLQMNSLRAEDTAMYYCALTGRSGWMRFPNWFDPWGQGTLVTVTS VL: QSVLTQPPSASGTPGQRVTISCSGSDSNIGSNAVNWYQQLPGTAPKLLIYDNNKRPSGVPDRFSGSKSGTSASLAISGLRSEDEADYYCSSYTSSNTVVFGGGTKLTVLG

>  <EC50>
0.0106 µM

$$$$

Here's the next entry for you.
The binder listed as C26B9 Fab (Fab, V domains shown, Human Fab (lambda) from a phage library, expressed in E. coli) VH: EVQLLESGGGLVQPGGSLRLSCAASGFTFSSYGMHWVRQAPGKGLEWVSVIYSGGSTYYADSVKGRFTISRDNSKNTLYLQMNSLRAEDTAVYYCARMGRAFDIWGQGTLVTVTS VL: QSVLTQPPSASGTPGQRVTISCSGSSSNIRSNTVNWYQQLPGTAPKLLIYGNSNRPSGVPDRFSGSKSGTSASLAISGLRSEDEADYYCQSYDSSLSGDVVFGGGTKLTVLG has a reported EC50 of 0.0103 µM

Values from patent US20150307625A1
